Target: Tyrosine-protein phosphatase non-receptor type 1 (Homo sapiens, UniProt P18031)
Sequence (P18031 whole entry): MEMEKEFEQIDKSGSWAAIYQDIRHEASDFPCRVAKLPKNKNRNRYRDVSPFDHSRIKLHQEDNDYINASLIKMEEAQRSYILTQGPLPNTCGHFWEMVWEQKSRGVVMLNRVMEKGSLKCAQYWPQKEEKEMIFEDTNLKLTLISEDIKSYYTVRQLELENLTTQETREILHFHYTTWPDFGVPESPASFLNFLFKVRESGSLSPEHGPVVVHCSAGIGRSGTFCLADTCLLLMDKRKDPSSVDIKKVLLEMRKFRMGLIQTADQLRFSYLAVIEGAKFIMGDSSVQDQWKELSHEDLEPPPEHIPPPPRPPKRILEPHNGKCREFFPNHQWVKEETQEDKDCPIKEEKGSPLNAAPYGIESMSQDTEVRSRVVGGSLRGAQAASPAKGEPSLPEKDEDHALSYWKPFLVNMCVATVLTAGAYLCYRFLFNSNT
observation.type: IC50

Some solved cases for reference:
# compound, IC50
data = [
    ("CC(C)CCS(=O)(=O)N1CC=C(c2ccc3cc(O)c(N4CC(=O)NS4(=O)=O)c(F)c3c2)C1", "< 1 nM"),
    ("O=C1CN(c2c(O)cc3ccc(OCCC4CC4(F)F)cc3c2F)S(=O)(=O)N1 (stereo not drawn)", "< 1 nM"),
]

Return reported IC50 for target or system Tyrosine-protein phosphatase non-receptor type 1 (Homo sapiens, UniProt P18031), item `CC(C)(C#N)CCOc1cc2c(F)c(N3CC(=O)NS3(=O)=O)c(O)cc2cc1O` . < 1 nM
